systemName: T1, cynomolgus monkey BCMA (cynomolgus monkey, UniProt A0A2K5UD97 1-53)
T1 construct: Soluble analyte in SPR; construct not described; also called cyBCMA; Cyno BCMA
T1 sequence (A0A2K5UD97 entry or part of it): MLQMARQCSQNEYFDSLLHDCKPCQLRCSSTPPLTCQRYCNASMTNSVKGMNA
assayMethodText: SPR, IgG immobilised, 37 C
assayEndpoint: kon
Please format your answer as a value with the unit trailing.

Use these answered entries as a reference point.
binder	kon
L3.PY/L1.PS/H3.AE (antibody, V domains shown, IgG) VH: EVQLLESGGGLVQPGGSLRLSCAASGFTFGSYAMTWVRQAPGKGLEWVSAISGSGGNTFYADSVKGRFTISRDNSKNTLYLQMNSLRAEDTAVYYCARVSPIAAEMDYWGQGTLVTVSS VL: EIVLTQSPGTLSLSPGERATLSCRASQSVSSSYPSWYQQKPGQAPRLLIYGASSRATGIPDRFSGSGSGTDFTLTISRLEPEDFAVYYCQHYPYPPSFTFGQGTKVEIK	2.46e+06 M⁻¹ s⁻¹
L3.PY/L1.PS/H2.QR (antibody, V domains shown, IgG) VH: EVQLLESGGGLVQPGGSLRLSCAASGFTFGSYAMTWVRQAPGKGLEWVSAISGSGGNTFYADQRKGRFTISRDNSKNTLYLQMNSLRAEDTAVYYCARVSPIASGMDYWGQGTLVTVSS VL: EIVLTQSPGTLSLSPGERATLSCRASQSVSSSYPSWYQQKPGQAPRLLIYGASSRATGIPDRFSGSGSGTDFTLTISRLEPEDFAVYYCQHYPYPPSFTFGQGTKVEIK	525000 M⁻¹ s⁻¹

Reported kon for L3.PY/L1.AH/H2.LT (antibody, V domains shown, IgG) VH: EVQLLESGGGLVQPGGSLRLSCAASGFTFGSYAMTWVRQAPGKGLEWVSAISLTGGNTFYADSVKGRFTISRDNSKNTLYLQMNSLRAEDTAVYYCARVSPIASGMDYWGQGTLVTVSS VL: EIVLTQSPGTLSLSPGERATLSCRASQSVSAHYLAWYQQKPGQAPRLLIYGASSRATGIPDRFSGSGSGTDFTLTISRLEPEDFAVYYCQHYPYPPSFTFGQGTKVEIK was 2.19e+06 M⁻¹ s⁻¹
